Quick list: melting point per entry.

[[record]]
compound = "CC(C)Sc1cn(C)cc(-c2ccc(Cl)c(C(F)(F)F)c2)c1=O"
metric = "melting point"
readout_value = "127 to 129 °C"

[[record]]
compound = "CCCCCCCCCCCCCCOc1ccc(CN(C(=O)c2cccnc2)c2ccccc2)cc1"
metric = "melting point"
readout_value = "65 to 67 °C"

[[record]]
compound = "Cc1ccc(Sc2ccnc(Cl)n2)cc1"
metric = "melting point"
readout_value = "80 to 81 °C"

[[record]]
compound = "COc1ccc(-n2cc(C3(O)CN4CCC3CC4)nn2)cc1 (stereo not given)"
metric = "melting point"
readout_value = "174 °C"

[[record]]
compound = "O=C(C=CC(F)(F)F)Nc1ccc2ncnc(Nc3cccc(Br)c3)c2c1"
metric = "melting point"
readout_value = "273 to 278 °C"


Next, consider the following compound.
Recorded melting point of COC(=O)c1cnc(OC)c(N)c1 , please.
108 to 109 °C
